Measured pKi accompanies every entry in the list below.
target: PknB (Mycobacterium tuberculosis); construct: made in house; test: biochemical; parameters: species or system M. tuberculosis; conditions: 3 nM PknB, 6 uM GarA, 3 μM ATP, 30 min; competitive tight-binding fit; several symbols in a cell = repeat determinations; read-out: Ki Values
Sequence (P9WI81 whole entry): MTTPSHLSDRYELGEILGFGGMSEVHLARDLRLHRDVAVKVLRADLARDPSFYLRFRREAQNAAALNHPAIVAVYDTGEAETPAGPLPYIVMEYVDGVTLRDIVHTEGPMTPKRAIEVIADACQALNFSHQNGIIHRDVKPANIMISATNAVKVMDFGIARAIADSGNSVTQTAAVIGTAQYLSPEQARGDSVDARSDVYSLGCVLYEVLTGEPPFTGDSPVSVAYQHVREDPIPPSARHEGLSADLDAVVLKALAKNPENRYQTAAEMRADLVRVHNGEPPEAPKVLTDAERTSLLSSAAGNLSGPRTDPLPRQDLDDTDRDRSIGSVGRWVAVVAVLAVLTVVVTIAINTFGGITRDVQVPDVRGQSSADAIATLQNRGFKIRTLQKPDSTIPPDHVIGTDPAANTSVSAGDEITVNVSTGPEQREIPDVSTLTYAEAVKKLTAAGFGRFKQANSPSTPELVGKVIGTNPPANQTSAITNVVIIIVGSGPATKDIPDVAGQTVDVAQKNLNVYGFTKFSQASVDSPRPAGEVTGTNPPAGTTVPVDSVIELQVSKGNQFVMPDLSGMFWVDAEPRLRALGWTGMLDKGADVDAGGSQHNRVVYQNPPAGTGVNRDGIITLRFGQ
pKi: −log10 of the molar value.

// worked examples, pKi included
| COMPOUND | EXPERIMENTAL_SYSTEM | REPORTED_VALUE |
| --- | --- | --- |
| N#Cc1ccc(-c2ncc(Br)c(Nc3cc(C4CC4)[nH]n3)n2)s1 [Compound 176] | PknB (Mycobacterium tuberculosis) | 8.00 to 9.00 |
| CC(=O)Nc1cnc(-c2ccccc2)nc1Nc1cc(C2CC2)[nH]n1 [Compound 10] | PknB (Mycobacterium tuberculosis) | 5.70 to 6.00 |
| CC(=O)c1ccc(-c2ncc(F)c(Nc3cc(C4CC4)[nH]n3)n2)s1 [Compound 137] | PknB (Mycobacterium tuberculosis) | 7.30 to 8.00 |
| OCc1cnc(-c2ccccc2)nc1Nc1cc(C2CC2)n[nH]1 [Compound 123] | PknB (Mycobacterium tuberculosis) | 6.30 to 7.00 |
| C#Cc1cnc(N2CC[C@@H](N)C2)nc1Nc1cc(C2CC2)n[nH]1 [Compound 184] | PknB (Mycobacterium tuberculosis) | < 5.40 |
| NS(=O)(=O)c1ccc(-c2ncc(Cl)c(Nc3cc(-c4ccccc4)[nH]n3)n2)s1 [Compound 234] | PknB (Mycobacterium tuberculosis) | < 5.40 |
| CNS(=O)(=O)c1ccc(-c2ncc(C)c(Nc3cc(C4CC4)[nH]n3)n2)s1 [Compound 33] | PknB (Mycobacterium tuberculosis) | 7.30 to 8.00 |
| C#Cc1cnc(N2CCNCC2)nc1Nc1cc(C2CC2)n[nH]1 [Compound 175] | PknB (Mycobacterium tuberculosis) | 5.40 to 5.70 |
| C#Cc1cnc(-c2ccc(S(C)(=O)=O)s2)nc1Nc1cc(C2CC2)[nH]n1 [Compound 255] | PknB (Mycobacterium tuberculosis) | 8.00 to 9.00 |
| N#Cc1ccc(-c2ncc(Cl)c(Nc3cc(C4CC4)[nH]n3)n2)s1 [Compound 140] | PknB (Mycobacterium tuberculosis) | 7.30 to 8.00 |

Look up and report measured pKi for this entry: CC(C)(C)NS(=O)(=O)c1ccc(-c2nc(Nc3cc(C4CC4)[nH]n3)cc(C(=O)O)n2)s1 [Compound 278]
6.30 to 7.00

Dear colleague, please send me the reported pKi for N#Cc1cccc(Nc2ncc(Cl)c(Nc3cc(C4CC4)[nH]n3)n2)c1 [Compound 89] when you can.
6.30 to 7.00

Look up and state reported pKi for Brc1cnc(-c2ccccc2)nc1Nc1cc(C2CC2)n[nH]1 [Compound 8]
6.30 to 7.00

Could you please provide reported pKi for NS(=O)(=O)c1ccc(-c2ncc(CCCO)c(Nc3cc(C4CC4)[nH]n3)n2)s1 [Compound 319] ? Thanks!
8.00 to 9.00

Give the reported pKi for this compound. NS(=O)(=O)c1cccc(-c2ncc(O)c(Nc3cc(C4CC4)n[nH]3)n2)c1 [Compound 99]
7.30 to 8.00

Give reported pKi value for NS(=O)(=O)c1ccc(-c2nccc(Nc3cc(C4CC4)[nH]n3)n2)s1 [Compound 50]
8.00 to 9.00

Tell me measured pKi for C#Cc1cnc(C2=CCNCC2)nc1Nc1cc(C2CC2)[nH]n1 [Compound 249] please.
< 5.40

Return reported pKi. Input compound: CS(=O)(=O)Nc1cccc(-c2ncc(Cl)c(Nc3cc(C4CC4)[nH]n3)n2)c1 [Compound 107]
7.00 to 7.30
